These entries and their values trace back to patent US20170173151A1.

assay_target: T1, HisCD74v1 (recombinant extracellular domain of human CD74 variant 1, N-terminal hexameric His tag) (human, UniProt P04233 73-296)
T1 construct: also called recombinant CD74v1; CD74v1 extracellular domain
T1 sequence: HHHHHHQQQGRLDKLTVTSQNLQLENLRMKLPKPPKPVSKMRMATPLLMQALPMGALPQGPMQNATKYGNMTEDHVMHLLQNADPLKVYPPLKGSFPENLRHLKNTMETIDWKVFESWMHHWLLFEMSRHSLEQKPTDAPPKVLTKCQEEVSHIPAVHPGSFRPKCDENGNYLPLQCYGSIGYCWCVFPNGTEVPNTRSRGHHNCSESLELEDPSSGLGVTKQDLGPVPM
method_description: ELISA, coated recombinant CD74v1 extracellular domain (CD74ECDHis); mean of four experiments
Field: EC50. Provide a value for each of the binders that follow.
Give bare numbers, in µg/mL.

[
  {
    "binder": "HuMab-CD74-011-vcMMAE (antibody, IgG1, V domains shown, drug-linker vcMMAE alkylated to the cysteines of the reduced antibody (DAR 3.8-3.9), Antibody-drug conjugate of HuMab-CD74-011 (IgG1,kappa); also called vcMMAE-conjugated HuMab-CD74-011) VH: QVQLVESGGGVVQPGRSLRLSCAASGFTFSSYGMHWVRQAPDKGLEWVAVIWYDGSNKYYADSVKGRFTISRDNSKNTLYLQMNSLRAEDTAVYYCARGGTLVRGAMYGTDVWGQGTTVTVSS VL: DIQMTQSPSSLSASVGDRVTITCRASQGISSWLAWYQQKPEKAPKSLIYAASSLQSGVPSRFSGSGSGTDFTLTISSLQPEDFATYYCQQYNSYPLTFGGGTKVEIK",
    "unit_name": "µg/mL",
    "recorded_number": 0.03
  }
]

Proceeding to the next binder to report its EC50.
Request: Would you kindly share the measured EC50 for HuMab-CD74-011-mcMMAF (antibody, IgG1, V domains shown, drug-linker mcMMAF alkylated to the cysteines of the reduced antibody (DAR 3.9 by HIC), Antibody-drug conjugate of HuMab-CD74-011 (IgG1,kappa)) VH: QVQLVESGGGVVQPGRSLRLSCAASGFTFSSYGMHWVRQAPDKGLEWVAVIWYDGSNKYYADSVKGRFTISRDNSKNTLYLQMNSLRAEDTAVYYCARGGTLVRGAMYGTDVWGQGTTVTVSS VL: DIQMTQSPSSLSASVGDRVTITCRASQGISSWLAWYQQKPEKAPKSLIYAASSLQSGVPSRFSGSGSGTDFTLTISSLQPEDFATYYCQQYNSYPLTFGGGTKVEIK ?
Result: 0.02
